TEST_METHOD_NOTES: soluble on expression in E. coli; label from the status in PepcDB or PDB records
VALUE_KIND: soluble on expression in E. coli

INSERT INTO assay_data (sequence_entry, observed_value) VALUES
  ('MVLEHCRDAIESHGVETDIISLRGMKIESCRACLSCAKKHRCRIDDGLNDIIDRIRDSEGFIVATPVYFGTARGDLMAALQRIGMVSRASDGFLSWKVGGPIAVARRGGHTATIQELLMFYFINDMIVPGSTYWNMVFGWAPGEVEDDSEGIETIRRFGENVAELIKRINGGSLEHHHHHH', 'not soluble'),
  ('SRMNPTIMVPGSEATQERFNETLASLNKQGKKHSILKLTVHKDNSISYSGQIAASDNRPYIVVAFADNKDSYTTIKKQAKWLDHALDELQKKYHFKNFNAIGHSNGGLDWTVYLENYYAKENFHLNTLMTIGTPYNFEVVNSSNHTQMLQDLIAAKDALPDDLTVYNVAGTNSYDGDYIVPITSVETGKYIFQKTIKQYTQITVTGNEAEHSDLPTNKEVLDLISENILNNNRKKVDPKNQN', 'not soluble'),
  ('MGSDKIHHHHHHMNQDRNKLLSKIAYLYYIENLNQSQIAAKLGIYRTSISRMLTEARNVGIVKIEIENFDTNMFKLENYVKEKYSLESLEIIPNEFDDTPTILSERISQVAAGVLRNLIDDNMKIGFSWGKSLSNLVDLIHSKSVRNVHFYPLAGGPSHIHAKYHVNTLIYEMSRKFHGECTFMNATIVQENKLLADGILQSRYFENLKNSWKDLDIAVVGIGDFSNKGKHQWLDMLTEDDFKELTKVKTVGEICCRFFDSKGKEVYENLQERTIAISLEDLKNIPQSLAVAYGDTKVSSILSVLRANLVNHLITDKNTILKVLEEDGDLTFREILGE', 'not soluble');

====

TEST_METHOD_NOTES: soluble on expression in E. coli; label from the status in PepcDB or PDB records
VALUE_KIND: soluble on expression in E. coli

INSERT INTO assay_data (sequence_entry, value_kind, observed_value) VALUES
  ('MSLAQRLATGKAGSIGLVMPTAPGHQSDVHFGEFLAGLGEEAVRHDFHFVIMPSDPDDEVAALRRLAISGNVDALFIAYMRGHDPRLAMLKSLSMPYVVHGRSFGAELDYPYLDIDNEGAFYDATRLLLQLGHTRFALMNGPMHLDFAIRRRNGVISALAERGLTLEEDCMSHALMTDEQGLLAMERFLQLPERPTAILCSSTVMALGAIRAVNQAGLRLGEDVSLIAHDDVLPLLKPENFSVPLTTTRSSLRAAGVRIAQRLIGTVKQAGPFPEQELWKTELIVRASTGPAPQEGHHHHHH', 'soluble on expression in E. coli', 'soluble'),
  ('ANSMLKGKVALVTGASRGIGRAIAKRLANDGALVAIHYGNRKEEAEETVYEIQSNGGSAFSIGANLESLHGVEALYSSLDNELQNRTGSTKFDILINNAGIGPGAFIEETTEQFFDRMVSVNAKAPFFIIQQALSRLRDNSRIINISSAATRISLPDFIAYSMTKGAINTMTFTLAKQLGARGITVNAILPGFVKTDMNAELLSDPMMKQYATTISAFNRLGEVEDIADTAAFLASPDSRWVTGQLIDVSGGSCL', 'soluble on expression in E. coli', 'soluble');

====

TEST_METHOD_NOTES: soluble on expression in E. coli; label from the status in PepcDB or PDB records
VALUE_KIND: soluble on expression in E. coli

INSERT INTO assay_data (sequence_entry, observed_value) VALUES
  ('MSLQIHALFPTAVATAQLRLDPLEMAAQLQTLLMLRGADEGNPNSGCAWTGDLNGVWQLHRHPDFSGMTDRVVEQAWAYLSAVGFDQAKLALHVQRCWPVLSDWDQMVGRHHHPNAHLSAVLYLSGSGSGEDGVLRIHAPSQPNELVPGSAAGHGGPIAAGHPLNQPHWDLAPQPGLLVLFPSRLDHSVLANGDPELLRCSISFDFVLTAPVDGDPPEYLAPHPSLWTPQPLEVNEGHHHHHH', 'soluble'),
  ('MTTETQADRTQQAVGRIIGSIGVVTTQTTGRHQGILTSWVSQASFTPPGIMLAIPGEFDAYGLAGQNKAFVLNLLQEGRSVRRHFDHQPLPKDGDNPFSRLEHYSTQNGCLILAEALAYLECLVQSWSNIGDHVLVYATVQAGQVLQPNGITLEHHHHHH', 'soluble');

====

TEST_METHOD_NOTES: soluble on expression in E. coli; label from the status in PepcDB or PDB records
VALUE_KIND: soluble on expression in E. coli

As a guide, the following entries are already answered.
INSERT INTO measurements (sequence_entry, observed_value) VALUES
  ('MENNNSPTNAAEHNQKIDPRNYDDVLSVAASIREQVGEDVARADLGIICGSGLGPIGDTVQDATILPYSKIPGFPTTHVVGHKGNMIFGKLGGKKVVCLQGRFHPYEHNMDLALCTLPVRVMHQLGIKIMIVSNAAGGINAVLRHGDLMLIKDHIFLPALAGFSPLVGCNDPRFGARFVSVHDAYDKQLRQLAIDVGRRSDMTLYEGVYVMSGGPQYESPAEVSLFKTVGADALGMSTCHEVTVARQCGIKVLGFSLITNIANLDADASVEVSHEEVMDIAQQAGERASRFVSDIITEITL', 'not soluble'),
  ('MGSDKIHHHHHHMIISWNTTNKCNMHCEHCYRDSGKGAEGELSTTEGKKLIDEIAKAGFKIMIFSGGEPLLRDDIYELIGYASKIGLRCVIGSNGTLITLEAAQKLKKAGVMRAGISLDSLKAKKHDSFRNYSGAWENTIIGIENLKKAGISFQINTTVMKWNKDEVKDITDFGANLGASAHHVFFLVPTGRGAELQEQILSKNDYENLIKEIMLKQAHANIEIKPTCAPQFVRIAEQNNIKTRFKKGCLAGIKYCIISPTGNVQPCAYLNFSAGNVKQKSFGEIWRESPILKKLRTMEYGEKCGTCKYKNKCGGCRARAAFYNNGDIMASDTWCIYNEYEENKING', 'not soluble'),
  ('MGSDKIHHHHHHMMAYLVFLGPPGAGKGTYAKRLQEITGIPHISTGDIFRDIVKKENDELGKKIKEIMERGELVPDELVNEVVKRRLSEKDCERGFILDGYPRTVAQAEFLDGFLKTQNKELTAAVLFEVPEEVVVQRLTARRICPKCGRIYNLISLPPKEDELCDDCKVKLVQREDDKEETVRHRYKVYLEKTQPVIDYYDKKGILKRVDGTIGIDNVIAEVLKIIGWSDK', 'not soluble'),
  ('MKVTPINDYKDIHQDKETVLVLGYFDALHRGHKVLFDKARQIADEKQLEVAVFTFNESPQLTFQRYTDDLLLHITAPQRRCDLFKAYGTDQLYLTDFNSDFARTSSDDFITRYINRLKAQEIVVGFDYKFGHHRTDTDYLDRNFSGTVHVIEEQQSGGEKISSTRVRQLIREGNVKEANNLLGHEFSTRGIVVHGDARGRTIGFPTANLAPIDRTILPADGVYVADVVIDGKRYRSMTSLGKNVTFGGTELRLEANIFDFEGDIYGKTIEVFWLDYIRDMIKFNNIDELCDQLKADKKIAEKL', 'not soluble'),
  ('DLRFFGDFVLEGDARLGEVAALYGLKLDGIDPGMPLSQFIVQKNRGEPVVGDQIEWNGTIWTVAVMDGNKIQKVGVKFPEGTRPGPGLFL', 'not soluble');

Task: Give its soluble on expression in E. coli value. Item: MRIVEVYSHLNGLEYIQVHLPHIWEEIQEIIVSIDAEACRTKESKEKTKQGQILYSPVALNEAFKEKLEAKGWKESRTNYYVTADPKLIRETLSLEPEEQKKVIEAAGKEALKSYNQTDFVKDRVAIEVQFGKYSFVAYDLFVKHMAFYVSDKIDVGVEILPMKELSKEMSSGISYYEGELYNVIRQGRGVPAVPLVLIGIAP
Output: soluble

Task: Give its soluble on expression in E. coli value. Item: ILTENTPYFEQLSVPQRSVGRIIGRGGETIRSICKASGAKITCDKESEGTLLLSRLIKISGTQKEVAAAKHLILEKVSEDEELRKRIAHSA
Output: soluble

====

TEST_METHOD_NOTES: soluble on expression in E. coli; label from the status in PepcDB or PDB records
VALUE_KIND: soluble on expression in E. coli

INSERT INTO results (sequence_entry, value_kind, observed_value) VALUES
  ('MGSDKIHHHHHHMNLLSPSDPIVLSTAYLPPIQYFTKLLHPEGVLLETAENFVKQSYRNRCHIAGPEGMQPLTIPVEKSPSPKAPIRDIRISEHGNWRHLHLNALISSYGSAPFFDHYMTEIEPFYRHKYTFLWDFNLDLLSVCLEWLDISPLIMFTFEYVEDCPNDFRYSIRPKQAPEDESFRPRVYYRTFAHKYGFLPNLSIVDLIFHEGPSAIQTLKECIR', 'soluble on expression in E. coli', 'not soluble'),
  ('MGSDKIHHHHHHMRIEVVNVSHIFHRGTPLEKKALENVSLVINEGECLLVAGNTGSGKSTLLQIVAGLIEPTSGDVLYDGERKKGYEIRRNIGIAFQYPEDQFFAERVFDEVAFAVKNFYPDRDPVPLVKKAMEFVGLDFDSFKDRVPFFLSGGEKRRVAIASVIVHEPDILILDEPLVGLDREGKTDLLRIVEKWKTLGKTVILISHDIETVINHVDRVVVLEKGKKVFDGTRMEFLEKYDPRFFTSKMLVMRRLVLKGEDPFSMSDDELLERVCNS', 'soluble on expression in E. coli', 'not soluble');
